Quick note: these are IC50 numbers for system: Platelet-activating factor acetylhydrolase (Homo sapiens, UniProt Q13093)
Sequence (Q13093 whole entry): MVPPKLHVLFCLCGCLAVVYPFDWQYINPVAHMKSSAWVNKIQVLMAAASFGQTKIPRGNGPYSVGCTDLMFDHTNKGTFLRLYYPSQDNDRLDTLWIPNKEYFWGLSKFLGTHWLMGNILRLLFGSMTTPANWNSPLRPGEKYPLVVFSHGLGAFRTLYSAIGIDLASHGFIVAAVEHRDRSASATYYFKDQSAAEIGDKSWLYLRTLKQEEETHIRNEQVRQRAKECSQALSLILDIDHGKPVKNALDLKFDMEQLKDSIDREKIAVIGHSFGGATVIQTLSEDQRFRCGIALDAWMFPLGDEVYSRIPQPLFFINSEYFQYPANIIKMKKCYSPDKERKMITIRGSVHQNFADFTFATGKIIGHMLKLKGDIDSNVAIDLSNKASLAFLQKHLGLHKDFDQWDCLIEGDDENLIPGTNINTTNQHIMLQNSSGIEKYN
Provide the reading as a plain figure in µM.

q: Recorded IC50 for CC1(C2CC(=O)N(CCOc3ccc(F)cc3)C2)CCS(=O)(=O)CC1 (racemic) with Platelet-activating factor acetylhydrolase (Homo sapiens, UniProt Q13093), please?
a: 1.5

q: Value wanted: IC50 (Platelet-activating factor acetylhydrolase (Homo sapiens, UniProt Q13093)) of entry CC1(C2CC(=O)N(CCOc3ccc(F)c(F)c3)C2)CCS(=O)(=O)CC1 (racemic)
a: 0.29

q: I'm curious: which IC50 was measured for "CC(C)[C@@]1(C)CC(=O)N(CCOc2ccc(F)c(C#N)c2)C1" tested on Platelet-activating factor acetylhydrolase (Homo sapiens, UniProt Q13093)?
a: 13

q: Lab request: please report IC50 under test system Platelet-activating factor acetylhydrolase (Homo sapiens, UniProt Q13093) for CC1(C2CC(=O)N(CCOc3ccc(F)c(C#N)c3)C2)CCOCC1 (racemic)
a: 0.26

q: Param readout= IC50; system= Platelet-activating factor acetylhydrolase (Homo sapiens, UniProt Q13093); entry= CC(C)(C)C1CC(=O)N(CCOc2ccc(F)c(C#N)c2)C1 (racemic) ; returns value.
a: 5.1

q: Form: Entry = CC(=O)N1CCC(C)(C2CC(=O)N(CCOc3ccc(F)c(C#N)c3)C2)CC1 (racemic) | System = Platelet-activating factor acetylhydrolase (Homo sapiens, UniProt Q13093) | IC50 = ____
a: 0.66

q: Give Platelet-activating factor acetylhydrolase (Homo sapiens, UniProt Q13093) IC50 for "CC(C)[C@]1(C)CC(=O)N(CCOc2ccc(F)c(C#N)c2)C1"
a: 6.2

q: Please state recorded IC50 (tested on Platelet-activating factor acetylhydrolase (Homo sapiens, UniProt Q13093)) of "CC1([C@@H]2CC(=O)N(CCOc3ccc(F)c(F)c3)C2)CCS(=O)(=O)CC1"
a: 0.1
